Test system: NCI-H226 lung
Test: NCI tumour cell line growth inhibition, 48 h
RECORDED METRIC: TGI

Example molecules with recorded TGI:
O=C(c1ccccc1)c1c(-c2ccccc2)sc2nc3ccccc3nc12
> 100 µM
CC(=O)CC(N)=O
> 100 µM
CC(=O)O/C=C1/C[C@H]2[C@@H]3CCC4CC(C(C)=O)CC[C@]4(C)[C@H]3CC[C@]2(C)C1=O (stereo partly specified)
> 100 µM
COC(=O)C1=CSC2(S1)C(C(=O)OC)=CSc1c2ssc1=O (stereo unspecified)
44.9 µM
COC(=O)c1ccccc1C1CN=NC12Cc1ccccc1C2=O (stereo unspecified)
> 100 µM
Cc1cccc2c1C(=O)[C@](C)([C@]1(C)Nc3cccc(C)c3C1=O)N2
> 100 µM
Cc1c(S(=O)(=O)O)ccc(N=Nc2c(O)c(C(=O)O)cc3ccccc23)c1Cl
> 100 µM
CN(C)CCCn1c(Cc2ccc(Cl)cc2)nc2cc(C(F)(F)F)ccc21
36.4 µM
Nc1nc(N)c2cc(-c3ccccc3)cnc2n1
33.1 µM
CN(C)CC1CN=C(N)O1 (stereo unspecified)
> 100 µM

Field TGI (NCI-H226 lung), entry O=C1c2ccccc2-c2oc(=O)c3ccccc3c21 : > 100 µM

###

Tested on: SN12C renal
Assay: NCI tumour cell line growth inhibition, 48 h
RECORDED METRIC: TGI

Example compounds with recorded TGI:
CC1CN=C(Nc2ccccc2)S1 (stereo not given)
> 100 µM
CCN1C(=O)C(=C/C=C/C=C2/N(C)c3ccccc3C2(C)C)C(=O)N(CC)C1=S
> 100 µM
CN(C)CCNC(=O)c1cccc2nc3cc(Cl)ccc3nc12
10.7 µM
Cc1c(S(=O)(=O)O)ccc(N=Nc2c(O)c(C(=O)O)cc3ccccc23)c1Cl
> 100 µM
O=[N+]([O-])c1ccc(N=Nc2c(O)ccc3ccccc23)c([N+](=O)[O-])c1
> 100 µM

The compound CC1C/C(=C\c2ccc(OC(=O)C(C)(C)C)cc2)C(=O)/C(=C/c2ccc(OC(=O)C(C)(C)C)cc2)C1 (stereo not given) showed TGI equal to > 100 µM

The compound O=C(O)c1ccc(Oc2nccc(-c3c(-c4ccc(F)cc4)ncn3C3CCNCC3)n2)cc1 showed TGI equal to > 25 µM

The compound O=C(c1ccccc1)c1c(-c2ccccc2)sc2nc3ccccc3nc12 showed TGI equal to > 100 µM

###

Tested on: RPMI-8226 leukemia
Test: NCI tumour cell line growth inhibition, 48 h
RECORDED METRIC: TGI (µM)
Reply with just the number (in µM).

Example compounds with recorded TGI:
C=C1C(=O)O[C@H]2[C@H]1CC/C(COC(=O)c1cc3ccccc3o1)=C\CC[C@@]1(C)O[C@@H]21
3.44
Cc1cccc2c1C(=O)[C@](C)([C@]1(C)Nc3cccc(C)c3C1=O)N2
53.7
COc1ccc(-c2c3c(cc4cc5c(cc24)OCO5)C(=O)OC3)cc1OC
9.98
COc1cccc(C2c3cc4c(cc3OC(N3CCOCC3)C2C)OCO4)c1OC (centres undefined)
24.1

Consider the additional compound presented here.
Field TGI (RPMI-8226 leukemia), entry Cc1ccc(Cc2cnc(NC(=O)/C=C/c3cccc(C)c3)s2)cc1 : 10.5

###

System: RPMI-8226 leukemia
Assay: NCI tumour cell line growth inhibition, 48 h
Measured TGI accompanies every entry in the list below.
Reply with just the number (in µM).

Nc1c2ccccc2nc2ccc3c(=O)cc(-c4ccccc4)oc3c12
0.697
CNC/C(Cl)=N/S(=O)(=O)c1ccc(C)cc1
33.5
CCCCCCCCCCCCCCCCCCN(C)C(COC)COP(=O)([O-])OCC[N+](C)(C)C (configuration not stated)
5.85
COc1cc(N2CCC(N3CCN(C)CC3)CC2)ccc1Nc1ncnc(Nc2ccccc2S(=O)(=O)C(C)C)n1
41.9
Cc1ccccc1NC(=O)c1c(C)oc2c1C(=O)c1ccccc1C2=O
60.9

Field TGI (RPMI-8226 leukemia), entry O=C1CC(=O)N(C(=O)c2nn(-c3ccc(Cl)cc3)cc2O)N1 : 11.1

###

Test system: HCT-15 colon
Test: NCI tumour cell line growth inhibition, 48 h
Measured TGI accompanies every entry in the list below.
Reply with just the number (in µM).

COc1ccc(/C(COc2ccc3c(=O)c(-c4ccccc4)coc3c2)=N\O)cc1
12.9

Consider the additional molecule presented here.
The molecule Clc1ccc(OCc2nnc(CCCCCCCCc3nnc(COc4ccc(Cl)cc4Cl)n3Nc3ccccc3)n2Nc2ccccc2)c(Cl)c1 showed TGI equal to 35

###

Test system: KM12 colon
Assay: NCI tumour cell line growth inhibition, 48 h
Measured TGI accompanies every entry in the list below.
Reply with just the number (in µM).

Nc1nc(Cl)c(/C=N\O)c(NCC2(CO)CCC2)n1
18.3
COc1ccc(-c2cc(-c3ccc(Cl)cc3)nc(SCCCC(=O)NO)n2)cc1
4.12

Consider the additional compound presented here.
The compound C=C(C)[C@@H]1CC[C@]2(C(=O)O)CC[C@]3(C)[C@H](CC[C@@H]4[C@@]5(C)CCC(NC(=O)c6cccc(OC(C)=O)c6OC(C)=O)C(C)(C)[C@@H]5CC[C@]43C)[C@@H]12 (stereo not given in full) showed TGI equal to 3.46

###

Tested on: HCT-15 colon
Test: NCI tumour cell line growth inhibition, 48 h
RECORDED METRIC: TGI

COc1ccc(-c2cc(-c3cccn3C)c(C#N)c(=O)[nH]2)cc1OC
> 100 µM
O=S(CC1(O)CCCCC1)c1ccccc1 (stereo not given)
> 100 µM
COc1ccc(-c2oc(=O)ccc2-c2cc(OC)c(OC)c(OC)c2)cc1O
> 100 µM
CC(C)(Oc1ccccc1)C(=O)Sc1c(-c2ccccc2)c(=O)n(-c2ccccc2)c(=S)n1-c1ccccc1
> 100 µM
O=S(=O)(NCCCNc1nccc(-c2c(-c3ccc(F)c(O)c3)nc3sccn23)n1)c1ccc(F)cc1
10.8 µM

The compound CC1(C)CC2=C(Sc3ccccc3N2)C(=O)C1C(=O)C(=O)Nc1cccc([N+](=O)[O-])c1 (stereo not given) showed TGI equal to > 100 µM

The compound N#CC1C(=O)SC2c3ccccc3C(=O)c3ccccc3C12 (stereo not given) showed TGI equal to > 10 µM

The compound NC[C@H]1Nc2ccccc2[C@@H](O)C1O (stereo not given in full) showed TGI equal to > 100 µM

The compound Cc1cccc(C)c1NC(=O)C(=O)CC(=O)/C=C/c1ccccc1 showed TGI equal to > 100 µM

The compound O=C(Nc1ccc(Cl)cc1Cl)C1C(=O)C(=O)N(c2ccc(Cl)cc2Cl)C1=O (stereo not given) showed TGI equal to > 100 µM

###

Test system: KM12 colon
Assay: NCI tumour cell line growth inhibition, 48 h
RECORDED METRIC: TGI

Example molecules with recorded TGI:
Cc1cccc(C)c1NC(=O)C(=O)CC(=O)/C=C/c1ccccc1
> 100 µM
Cc1ccc(NC2=C(Cl)C(=O)N(Cc3ccc(Cl)cc3)C2=O)cc1O
39.6 µM
COC(=O)c1ccccc1C1CN=NC12Cc1ccccc1C2=O (stereo not given)
> 100 µM
CN=c1c2c(c3[nH]c4ccccc4c4cnc1c34)NCCC2=O
> 10 µM
O=C(O)C1CCCCC1C(=O)Nn1cnnc1 (stereo not given)
> 100 µM
COC(=O)CC[C@]1(C)O[C@H]2[C@H]([C@@H](C)CCCC(C)=O)OC(=O)[C@@H]2C[C@H]1O
> 100 µM
CCCCCCCCCCCCN1[C@H]2CCC[C@H]2C(O)[C@@H]2CCC[C@@H]21 (stereo not given in full)
> 100 µM
COC(=O)C1=C(O)c2cc(-c3ccccc3)c(-c3ccccc3)c(C#N)c2NC(=O)C1
> 100 µM

The molecule COC(=O)[C@]12CC[C@H]3CC[C@H]([C@H]31)[C@H](c1ccccc1)N2 showed TGI equal to 39.8 µM

The molecule CNC(=O)c1ccc(N2C(=S)N(c3ccc(C#N)c(C(F)(F)F)c3)C(=O)C2(C)C)cc1F showed TGI equal to > 91.1 µM

###

Test system: TK-10 renal
Assay: NCI tumour cell line growth inhibition, 48 h; in the data active = GI50 below about 0.43 µM; inactive = the rest
Returns: one label drawn from 1 = active, -1 = inactive

C=C1C(=O)O[C@H]2[C@H]1CC/C(COC(=O)C(=O)c1cn(C)c3ccc(Cl)cc13)=C\CC[C@@]1(C)O[C@@H]21
-1
CCN(Cc1ccccc1)c1ccc(CO)c(Cl)c1
1
C=C(NC(=O)C(=C)NC(=O)c1csc(C2=NC3c4csc(n4)C4NC(=O)c5csc(n5)C(C(C)(O)C(C)O)NC(=O)C5CSC(=N5)C(=CC)NC(=O)C(C(C)O)NC(=O)c5csc(n5)C3(CC2)NC(=O)C(C)NC(=O)C(=C)NC(=O)C(C)NC(=O)C(C(C)CC)NC2C=Cc3c(C(C)O)cc(nc3C2O)C(=O)OC4C)n1)C(N)=O (configuration not stated)
-1
COC(=O)CC[C@]1(C)O[C@H]2[C@H]([C@@H](C)CCCC(C)=O)OC(=O)[C@@H]2C[C@H]1O
-1
N#CC1=C(N)Oc2c(ccc3ccccc23)C1c1ccccc1 (configuration not stated)
-1

I'd appreciate the recorded outcome for CNC(=O)c1ccc(N2C(=S)N(c3ccc(C#N)c(C(F)(F)F)c3)C(=O)C2(C)C)cc1F from this test.
-1

I'd appreciate the recorded outcome for COc1cc(-c2ccc(-c3ccc(C(=N)N)nc3)s2)cc(OC)c1OC from this test.
-1

These measurements were taken from PubChem BioAssay (NCI).
